Biological target: NaV 1.8 channel (Homo sapiens)
Sequence (Q9Y5Y9 whole entry): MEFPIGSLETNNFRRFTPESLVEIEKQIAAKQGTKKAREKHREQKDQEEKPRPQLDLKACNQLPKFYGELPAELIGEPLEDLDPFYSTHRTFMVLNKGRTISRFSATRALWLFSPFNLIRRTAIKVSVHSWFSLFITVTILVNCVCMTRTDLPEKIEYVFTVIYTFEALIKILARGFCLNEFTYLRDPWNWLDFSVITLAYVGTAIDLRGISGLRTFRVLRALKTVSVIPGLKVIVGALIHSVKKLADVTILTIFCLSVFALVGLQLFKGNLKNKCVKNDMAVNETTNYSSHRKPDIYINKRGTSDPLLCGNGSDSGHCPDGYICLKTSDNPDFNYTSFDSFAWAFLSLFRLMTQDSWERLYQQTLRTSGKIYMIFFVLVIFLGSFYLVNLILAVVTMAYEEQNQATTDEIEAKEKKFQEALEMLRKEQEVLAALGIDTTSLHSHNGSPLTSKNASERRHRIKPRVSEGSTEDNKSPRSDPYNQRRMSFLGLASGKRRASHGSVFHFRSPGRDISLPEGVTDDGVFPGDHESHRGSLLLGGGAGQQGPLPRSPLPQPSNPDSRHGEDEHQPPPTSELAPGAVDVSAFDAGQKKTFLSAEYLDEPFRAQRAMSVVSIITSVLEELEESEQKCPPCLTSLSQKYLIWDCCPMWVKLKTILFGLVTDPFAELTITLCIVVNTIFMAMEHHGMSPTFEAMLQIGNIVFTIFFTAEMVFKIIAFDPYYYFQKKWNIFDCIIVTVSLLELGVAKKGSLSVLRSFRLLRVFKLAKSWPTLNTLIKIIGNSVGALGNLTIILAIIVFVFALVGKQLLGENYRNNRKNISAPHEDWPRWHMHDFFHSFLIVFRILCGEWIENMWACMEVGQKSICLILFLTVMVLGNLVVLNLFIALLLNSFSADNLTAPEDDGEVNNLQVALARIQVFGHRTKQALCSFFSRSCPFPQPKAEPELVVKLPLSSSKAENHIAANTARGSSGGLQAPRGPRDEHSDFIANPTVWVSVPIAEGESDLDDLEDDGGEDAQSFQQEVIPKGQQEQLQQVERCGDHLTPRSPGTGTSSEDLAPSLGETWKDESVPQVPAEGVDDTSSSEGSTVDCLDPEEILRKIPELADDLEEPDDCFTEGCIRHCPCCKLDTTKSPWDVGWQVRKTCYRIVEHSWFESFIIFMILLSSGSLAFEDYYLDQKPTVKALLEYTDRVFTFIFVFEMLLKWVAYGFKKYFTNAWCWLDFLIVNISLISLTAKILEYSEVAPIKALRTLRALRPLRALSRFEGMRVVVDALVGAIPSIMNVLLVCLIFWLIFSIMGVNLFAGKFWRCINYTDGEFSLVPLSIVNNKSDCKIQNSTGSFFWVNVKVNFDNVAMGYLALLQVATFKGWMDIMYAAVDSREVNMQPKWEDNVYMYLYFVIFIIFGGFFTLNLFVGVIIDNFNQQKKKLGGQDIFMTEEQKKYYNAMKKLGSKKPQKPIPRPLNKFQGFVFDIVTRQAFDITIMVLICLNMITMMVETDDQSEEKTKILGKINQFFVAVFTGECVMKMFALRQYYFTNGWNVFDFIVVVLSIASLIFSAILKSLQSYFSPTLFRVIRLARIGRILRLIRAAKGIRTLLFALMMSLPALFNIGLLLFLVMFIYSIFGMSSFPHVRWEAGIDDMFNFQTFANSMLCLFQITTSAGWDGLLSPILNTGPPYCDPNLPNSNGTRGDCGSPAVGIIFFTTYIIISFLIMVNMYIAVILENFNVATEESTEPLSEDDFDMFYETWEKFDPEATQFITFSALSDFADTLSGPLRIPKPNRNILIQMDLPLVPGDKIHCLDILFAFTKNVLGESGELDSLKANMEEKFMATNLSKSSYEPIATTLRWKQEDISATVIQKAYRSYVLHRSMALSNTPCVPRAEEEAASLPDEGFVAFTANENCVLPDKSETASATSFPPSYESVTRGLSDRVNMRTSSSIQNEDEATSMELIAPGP
Experiment: Activity against NaV 1.8 channel (optical membrane potential assay)
pIC50: −log10 of the molar value.
outcomeMeasure: pIC50

Known results for compounds:
INSERT INTO measurements (compound, reportedmeasurement) VALUES
  ('Cc1ccc2c(N3CCC(NC(=O)[C@H](O)CC(C)(C)C)CC3)nc(-c3ccccc3O)nc2c1 [Example 232]', '5.00 to 5.70'),
  ('CCC(O)(CC)C(=O)NC1CCN(c2nc(-c3ccccc3O)nc3cc(C)ccc23)CC1 [Example 234]', '< 5.00'),
  ('Cc1ccc2c(N3CCC(NC(=O)C(C)(C)O)CC3)nc(-c3ccccc3O)nc2c1 [Example 233]', '< 5.00'),
  ('Cc1ccc2c(N3CC[C@@H](NC(=O)C(O)c4ccc(F)cc4)C3)nc(-c3ccccc3O)nc2c1 (some centres unmarked) [Example 360]', '< 5.00'),
  ('Cc1ccc2c(N3CC[C@@H](NC(=O)c4cccc(C#N)c4)C3)nc(-c3ccccc3O)nc2c1 [Example 327]', '< 5.00'),
  ('Cc1ccc2c(N3CCN(C(=O)[C@H](O)CC(C)C)[C@@H](CO)C3)nc(-c3ccccc3O)nc2c1 [Example 106]', '< 5.00');

Entry Cc1ccc2c(N3CCN(C(=O)O[C@H]4CCOC4)CC3)nc(-c3c(O)cccc3F)nc2c1 [Example 163] has what pIC50?
5.00 to 5.70

Further, for Cc1ccc2c(N3CCN(C(=O)C(C)(C)O)CC3)nc(-c3ccccc3O)nc2c1 [Example 108] ?
5.00 to 5.70
